target: CDK9/cyclin T1 (Homo sapiens, UniProt P50750); test: Inhibition of recombinant human CDK9/CyclinT expressed in baculovirus infected Sf9 insect cells using YSPTSPSYSPTSPSYSPTSPSKKKK as substrate after 30 mins by ADP-Glo reagent based luminescence assay
Sequence (O60563 whole entry): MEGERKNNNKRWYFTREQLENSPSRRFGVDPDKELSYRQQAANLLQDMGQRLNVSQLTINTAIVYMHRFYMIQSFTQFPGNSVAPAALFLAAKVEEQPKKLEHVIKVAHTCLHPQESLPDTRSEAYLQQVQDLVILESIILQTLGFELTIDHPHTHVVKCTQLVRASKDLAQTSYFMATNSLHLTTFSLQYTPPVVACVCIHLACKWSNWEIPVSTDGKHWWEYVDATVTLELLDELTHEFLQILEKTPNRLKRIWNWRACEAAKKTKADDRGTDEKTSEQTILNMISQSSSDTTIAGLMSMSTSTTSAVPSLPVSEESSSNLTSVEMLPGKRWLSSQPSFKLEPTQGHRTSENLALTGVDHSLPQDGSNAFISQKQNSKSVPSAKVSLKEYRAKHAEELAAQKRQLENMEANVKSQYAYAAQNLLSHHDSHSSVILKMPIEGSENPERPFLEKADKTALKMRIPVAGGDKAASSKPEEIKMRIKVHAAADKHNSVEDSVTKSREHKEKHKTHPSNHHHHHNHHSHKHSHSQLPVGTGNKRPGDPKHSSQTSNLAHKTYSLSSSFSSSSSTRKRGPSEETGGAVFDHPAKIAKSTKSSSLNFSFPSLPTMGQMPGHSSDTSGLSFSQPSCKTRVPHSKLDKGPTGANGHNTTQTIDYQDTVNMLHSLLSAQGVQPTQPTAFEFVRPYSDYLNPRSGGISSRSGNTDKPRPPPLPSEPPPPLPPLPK
Sequence (P50750 whole entry): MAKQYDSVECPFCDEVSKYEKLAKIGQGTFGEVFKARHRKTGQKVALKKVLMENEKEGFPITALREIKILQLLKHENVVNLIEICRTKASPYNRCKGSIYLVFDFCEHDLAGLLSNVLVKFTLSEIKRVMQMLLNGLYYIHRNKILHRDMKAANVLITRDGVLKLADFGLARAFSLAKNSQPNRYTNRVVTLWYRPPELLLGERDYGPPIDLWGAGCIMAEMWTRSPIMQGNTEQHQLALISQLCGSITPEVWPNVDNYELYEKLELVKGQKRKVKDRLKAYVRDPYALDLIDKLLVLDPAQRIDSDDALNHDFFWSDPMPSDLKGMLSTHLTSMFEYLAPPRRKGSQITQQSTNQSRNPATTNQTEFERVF
Observed property: IC50

Ask: Requested field: IC50. Item: `O=C(O)c1nc2ccccc2nc1Nc1cccc(O)c1`
Reply: > 10 µM

Ask: Requested field: IC50. Item: `Nc1cccc(Nc2nc3ccccc3nc2C(=O)[O-])c1.[K+]`
Reply: > 10 µM

Ask: Requested field: IC50. Item: `O=C(O)c1nc2ccccc2nc1Nc1ccc(O)cc1`
Reply: > 10 µM

Ask: Requested field: IC50. Item: `O=C(O)c1nc2ccccc2nc1Nc1ccccc1O`
Reply: > 10 µM

Ask: Requested field: IC50. Item: `O=C(O)c1nc2ccccc2nc1Nc1cccc(N2CCOCC2)c1`
Reply: > 10 µM
